# System: BT-549 breast
# PROCEDURE_DETAILS: NCI-60 one-dose screen, 48 h (100 = growth as untreated, 0 = no growth, -100 = all killed)
# MEASUREMENT_PARAMETERS: 10 µM unless noted
This is part of a sample that, as a whole, favours compounds with a hit. Of some 83,000 tested, about 20% had one in any assay.
ASSAY_ENDPOINT: growth (%)

>>> print(df.to_string())
                                   molecule  value
0                  CCCCNc1ccc(Nc2ccccc2)cc1   49.7
1  CC(=O)OC(C)C(=O)NCC(C)O (centres undefined)    111
2              Cc1ccc(S(=O)(=O)c2ccccc2)cc1   36.6
3               c1ccc2c(c1)OC1OC2Oc2ccccc21   93.2
4  CCCCCCCCCCCCCCCc1ccc(N)c(OC2OC(CO)C(O)C(O)C2O)c1 (centres undefined)   54.8
5  O=c1n(CC2CO2)c(=O)n(CC2CO2)c(=O)n1CC1CO1 (centres undefined)   77.1
6                Fc1ccc([I+]c2ccc(F)cc2)cc1     67
7                          Nc1cc(N)c(N)cc1N   85.4
8                                        Cl    112
